target: NcT7H (thymine-7-hydroxylase) (Neurospora crassa)
Sequence (Q7RYZ9 entry or part of it): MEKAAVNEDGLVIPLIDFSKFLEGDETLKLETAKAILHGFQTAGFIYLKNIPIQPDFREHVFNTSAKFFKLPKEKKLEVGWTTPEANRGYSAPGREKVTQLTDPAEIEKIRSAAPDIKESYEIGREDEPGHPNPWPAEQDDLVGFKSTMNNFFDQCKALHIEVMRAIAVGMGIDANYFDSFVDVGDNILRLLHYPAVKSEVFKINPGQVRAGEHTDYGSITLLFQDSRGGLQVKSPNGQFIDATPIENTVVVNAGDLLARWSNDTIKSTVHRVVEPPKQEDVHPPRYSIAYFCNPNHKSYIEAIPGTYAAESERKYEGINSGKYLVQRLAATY
Result Type: Kd (µM)

Field: example entries. Status: answers known.
{"Structure Smiles": "O=C(O)CNC(=O)C(=O)O", "Unit String": "µM", "Result Number": 5.35}
{"Structure Smiles": "O=c1[nH]cc(CO)c(=O)[nH]1", "Unit String": "µM", "Result Number": 30.5}

1: Cc1c[nH]c(=O)[nH]c1=O
2: O=Cc1c[nH]c(=O)[nH]c1=O
q: I'm curious, which of these has a smaller Kd number: 1 or 2 ? Answer by stating the label of the chosen item.
a: 1
(1: 32 µM, 2: 108 µM)
